- target_or_system: HLA-A*02:02
- assay: IEDB peptide-MHC binding, purified MHC/competitive/radioactivity; filed as Kd, often an IC50 or EC50 that approximates it; bounds were set here for any values at or beyond the usual limits of such assays
- particulars: source organism: Human immunodeficiency virus type 1 (isolate YU2)
Each item that follows carries a reported Kd.
observable: Kd (nM)

1. RILQQLLFI
1540
2. MTNNPPIPV
7170
3. KAACWWAGI
1080
